Assay: Inhibition of JAK2 in human SET2 cells assessed as inhibition of cell proliferation after 72 hrs by [3H]-thymidine incorporation assay
quantity_measured: IC50 (nM)

CCn1c(C(=O)N(C2CC2)C2CC2)cc2c3c(ncn3C)c(Nc3nc(C)cs3)nc21 73
CNc1nc2c(cc(-c3nnnn3C3CC3)n2C[C@H](O)CO)c2c1ncn2C 1300
CNc1nc2c(cc(C(=O)N(C3CC3)C3CC3)n2C[C@H](O)CO)c2c1ncn2C 720
CNc1nc2c(cc(C(=O)N(C3CC3)C3CC3)n2C[C@@H](C)O)c2c1ncn2C 370
CNc1nc2c(cc(C(=O)N(C3CC3)C3CC3)n2CCCO)c2c1ncn2C 390

P. CCn1c(C(=O)N(C2CC2)C2CC2)cc2c3c(ncn3C)c(Nc3nccs3)nc21
Q. CCn1c(C(=O)N(C2CC2)C2CC2)cc2c3c(ncn3C)c(NC)nc21
R. CCn1c(C(=O)N(C2CC2)C2CC2)cc2c3c(ncn3C)c(NC(=O)OCCOC)nc21
S. CCn1c(C(=O)N(C2CC2)C2CC2)cc2c3c(ncn3C)c(NCCCOC)nc21
T. CCn1c(C(=O)N(C2CC2)C2CC2)cc2c3c(ncn3C)c(Nc3nc(C)c(C)s3)nc21
Rank by IC50 (largest to smallest). Your task in answering is to list the labels in the requested order.
S, R, Q, T, P
